Tested on: Plasmodium berghei
Assay Method Text: Screen against P. berghei liver stage (PbLuc), transformed with Luciferase, at 10uM
Format: functional, HepG2
Protocol Conditions: tested at 10 uM
In all, about 69,000 compounds went through this assay and about 8,600 (12%) showed an effect of 50% or more. This excerpt belongs to a sample that is enriched for strong results.
// -1 strictly below 40% in INHIBITION; 1 otherwise

Molecule | Class Name
CS(=O)(=O)CCC(=O)Nc1cnn(-c2ccccc2Cl)c1 | 1
CCC1CC(=O)NCc2nc3sc(C)cn3c21 (stereo not given) | 1
CCn1cc(NS(=O)(=O)c2ccc(Br)s2)c(C(N)=O)n1 | 1
Cn1cc(CN2CCC3(CC2)CCN(Cc2ccccn2)CC3)cn1 | 1
O=C(NC1CC1)C1(Cc2ccccc2-c2ccncc2)CCOCC1 | 1
CS(=O)(=O)CCC(=O)Nc1nccn1Cc1ccccc1Cl | 1
Cc1cccc(C(=O)N(C)Cc2cc(Br)cs2)n1 | -1
CC(OCC1CC1)C(=O)Nc1nccn1Cc1ccccc1 (stereo not given) | 1
CCOCC(=O)Nc1nccn1Cc1ccccc1Cl | -1
CC(C)N(C)CC(=O)Nc1nccn1Cc1ccccc1Cl | -1
COc1cc(C)c(C2CC(=O)NCc3nc4sccn4c32)cc1C (stereo not given) | -1
COc1ccc(Cl)cc1S(=O)(=O)N(C)CC(=O)Nc1cccnc1 | -1
Cc1cccc(CN2C(=O)OCC2CO)c1F (stereo not given) | -1
CCn1cc(NS(=O)(=O)c2ccc(Br)s2)c(C(=O)NCC(C)C)n1 | -1
CCC1CN(C(=O)Cc2coc(-c3ccccc3)n2)CCO1 (stereo not given) | -1
CCn1cc(S(=O)(=O)N2CCN(S(=O)(=O)c3ccc(Br)s3)CC2)c(C)n1 | -1
Cc1cn(-c2ccccc2)nc1NS(=O)(=O)c1cc(C(=O)O)sc1C | -1
CN(Cc1cc(Br)cs1)Cc1nnsc1Cl | 1
Cn1cc(C2CN(C(=O)Cc3coc(-c4ccccc4)n3)CCO2)cn1 (stereo not given) | 1
CC(=O)Nc1nccn1Cc1ccccc1Cl | 1
CCOCCOC(C)C(=O)Nc1nccn1Cc1ccccc1 (stereo not given) | 1
CCN(Cc1ccoc1)C(=O)NC1CCN(CC2CC2)C1 (stereo not given) | -1
Cc1ncn(CCNC(=O)Nc2ccc(F)c(Cl)c2)c(=O)c1C | -1
